Hey, just so you know, these numbers are from patent US7563467B2.

Test system: primary cultured rat cerebrocortical neurons
Assay: Inhibition of xanthine/xanthine oxidase-induced neurotoxicity (LDH release)
Format: cell-based, Sprague-Dawley rat
Conditions: Cerebrocortical neuron; isolated compounds; rat cerebrocortical neurons, LDH
Protocol: Namely, the cerebral cortices of Sprague-Dawley rat embryos at 16-18 days of gestation were isolated, and meninges […] removed therefrom using a dissecting microscope. […] Data were calculated as percentages of the control LDH activity in the culture medium exposed to the respective oxidative insult in the absence of test principles. The inhibitory activity of a test sample for the oxidative nerve cell damage was calculated from the amount of released LDH relative to that of an unchanged control.
Catalogue of IC50 readings, one per entry.

# compound, IC50
measured = [
    ("COc1c(-c2ccc(O)c(O)c2)oc2cc(O)cc(O)c2c1=O", "0.65 µg/mL"),
    ("O=C1c2c(O)cc(O)cc2O[C@H](c2ccc(O)cc2)[C@H]1O [Dihydrokaempferol, dihydrokaempferol]", "> 300 µg/mL"),
    ("O=C1c2c(O)cc(O)cc2O[C@H](c2ccc(O)c(O)c2)[C@H]1O [Dihydroquercetin, dihydroquercetin]", "16.6 µg/mL"),
    ("O=c1c(O)c(-c2ccc(O)cc2)oc2cc(O)cc(O)c12", "24.9 µg/mL"),
]

Attention now shifts to the item below.
Summary for this compound, "O=c1c(O)c(-c2ccc(O)c(O)c2)oc2cc(O)cc(O)c12" : IC50 is 5.5 µg/mL
